- System: Mast/stem cell growth factor receptor Kit (Homo sapiens), P10721 [UNDEFINED MUTATION]
- Sequence (P10721 whole entry, looked up, change not shown): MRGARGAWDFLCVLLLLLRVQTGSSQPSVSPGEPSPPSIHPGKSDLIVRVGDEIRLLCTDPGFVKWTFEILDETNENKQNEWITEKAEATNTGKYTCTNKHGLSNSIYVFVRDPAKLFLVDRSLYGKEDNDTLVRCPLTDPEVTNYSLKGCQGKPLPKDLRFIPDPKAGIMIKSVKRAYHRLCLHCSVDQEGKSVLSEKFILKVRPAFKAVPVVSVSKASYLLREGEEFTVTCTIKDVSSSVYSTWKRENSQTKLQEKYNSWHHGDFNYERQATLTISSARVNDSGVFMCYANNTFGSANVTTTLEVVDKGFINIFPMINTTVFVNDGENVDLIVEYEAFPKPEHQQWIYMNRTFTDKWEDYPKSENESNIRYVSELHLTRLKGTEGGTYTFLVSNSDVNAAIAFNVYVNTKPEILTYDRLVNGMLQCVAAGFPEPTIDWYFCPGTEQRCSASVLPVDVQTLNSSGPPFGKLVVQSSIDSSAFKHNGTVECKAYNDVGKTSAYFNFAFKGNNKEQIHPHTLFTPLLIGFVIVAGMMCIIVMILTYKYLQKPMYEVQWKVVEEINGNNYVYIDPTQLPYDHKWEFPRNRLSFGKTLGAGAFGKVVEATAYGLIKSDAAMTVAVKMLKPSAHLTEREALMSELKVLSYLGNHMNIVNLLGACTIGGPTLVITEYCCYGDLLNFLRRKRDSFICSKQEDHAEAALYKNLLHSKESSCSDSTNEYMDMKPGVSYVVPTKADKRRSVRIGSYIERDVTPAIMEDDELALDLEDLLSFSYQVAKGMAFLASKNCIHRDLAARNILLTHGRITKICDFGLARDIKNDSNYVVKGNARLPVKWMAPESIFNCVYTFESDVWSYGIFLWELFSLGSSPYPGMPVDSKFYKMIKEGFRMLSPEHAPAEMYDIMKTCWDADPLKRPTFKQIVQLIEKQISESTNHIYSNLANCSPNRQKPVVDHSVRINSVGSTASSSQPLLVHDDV
Measured GI50, listed per entry.
Lab book: enter the figure in nM, no units written.

molecule.smiles | GI50, nM
Cn1cc(-c2cc3c(N4CCN(c5ncc([C@@](C)(N)c6ccc(F)cc6)cn5)CC4)ncnn3c2)cn1 | 860

Query: Provide GI50, tested on Mast/stem cell growth factor receptor Kit (Homo sapiens), P10721 [UNDEFINED MUTATION], for `COc1cc2nccc(Oc3cnc(CC(=O)Nc4cnn(C(C)C)c4)c(OC)c3)c2cc1OC` .
Reply: 61

Query: Provide GI50, tested on Mast/stem cell growth factor receptor Kit (Homo sapiens), P10721 [UNDEFINED MUTATION], for `COCCOc1cc(F)c2c(Nc3ccc(NC(=O)Cn4cc(C(C)C)nn4)cc3)ncnc2c1` .
Reply: 16

###

- Test system: Mast/stem cell growth factor receptor Kit (Homo sapiens), P10721 [UNDEFINED MUTATION]
GI50 vs 20 nM: less than gives Yes; not less than gives No.

molecule.smiles | tested.system | assigned.category
CNC(=O)c1cc(Oc2ccc(NC(=O)Nc3ccc(Cl)c(C(F)(F)F)c3)c(F)c2)ccn1 | Mast/stem cell growth factor receptor Kit (Homo sapiens), P10721 [UNDEFINED MUTATION] | No
COc1cc2ncnc(Oc3cnc(CC(=O)Nc4cnn(C(C)C)c4)c(OC)c3)c2cc1OC | Mast/stem cell growth factor receptor Kit (Homo sapiens), P10721 [UNDEFINED MUTATION] | No
COc1cc2ncnc(Oc3ccc(NC(=O)Cn4cc(C(C)C)nn4)cc3)c2cc1OC | Mast/stem cell growth factor receptor Kit (Homo sapiens), P10721 [UNDEFINED MUTATION] | Yes
COc1cc2nccc(Oc3ccc(NC(=O)Cc4cnn(C(C)C)c4)cc3)c2cc1OC | Mast/stem cell growth factor receptor Kit (Homo sapiens), P10721 [UNDEFINED MUTATION] | Yes

Here's the next entry for you.
Query: Please check: GI50 for `COc1cc2nccc(Oc3ccc(NC(=O)Cc4cnn(C(C)C)c4)nc3)c2cc1OC` , strictly under 20 nM or not?
Reply: Yes

###

Observed GI50 for Mast/stem cell growth factor receptor Kit (Homo sapiens), P10721 [UNDEFINED MUTATION], reported per entry below.

compound | tested.system | result
CCN(CC)CCNC(=O)c1c(C)[nH]c(/C=C2\C(=O)Nc3ccc(F)cc32)c1C [SUNITINIB] | Mast/stem cell growth factor receptor Kit (Homo sapiens), P10721 [UNDEFINED MUTATION] | 398 to 400 nM

Query: Identify GI50 associated with the compound `COc1cc2ncnc(Oc3ccc(NC(=O)Cc4cnn(C(C)C)c4)cc3)c2cc1OC`
Reply: 21 nM

Query: Identify GI50 associated with the compound CNC(=O)c1cc(Oc2ccc(NC(=O)Nc3ccc(Cl)c(C(F)(F)F)c3)c(F)c2)ccn1 [REGORAFENIB]
Reply: 290 to 297 nM

Query: Identify GI50 associated with the compound Cc1ccc(NC(=O)c2ccc(CN3CCN(C)CC3)cc2)cc1Nc1nccc(-c2cccnc2)n1 [IMATINIB]
Reply: 535 to 537 nM

###

Measured logD, listed per entry.
- test.details: Lipophilicity, log D of the compound at pH 7.4
- Type: physicochemical
- study.conditions: buffer
Lab note: jot the number down without any unit.

Consider the reported logD for these compounds:
molecule.smiles | logD
COc1cc2ncnc(Oc3ccc(NC(=O)Cn4ccc(C(C)C)n4)cc3)c2cc1OC | 3.5
COc1cc2ncnc(Oc3ccc(NC(=O)Cc4cn(C(C)C)nn4)cc3)c2cc1OC | 2.6

Below: the item to evaluate.
Query: Identify logD associated with the compound `COc1cc2ncnc(Oc3ccc(NC(=O)Cn4cnc(C(C)C)n4)cc3)c2cc1OC`
Reply: 2.6
